assay: Human absorption study of composition 1 (cannabinoid extract containing CBDA in compound of formula IV and EPA fish oil); format: in vivo; conditions: human, plasma; cannabinoid extract containing 170 mg of CBDA in compound of formula IV, oral, one fasted volunteer
Measurement label: Cmax
Numeric answer plus unit only.

Fill blank: measured Cmax of the molecule C=C(C)[C@@H]1CCC(C)=C[C@H]1c1c(O)cc(CCCCC)c(C(=O)O)c1O is ____.
1000 ng/mL

###

assay: CBD solubility in carrier oils; type: physicochemical; details: oil or lipid; in corn oil
Measurement label: solubility

Fill blank: measured solubility of the compound C=C(C)[C@@H]1CCC(C)=C[C@H]1c1c(O)cc(CCCCC)cc1O [CBD, Cannabidiol] is ____.
~300 mg/mL

###

assay: Comparative human absorption cross-over study of CBD in compound of formula (IV) versus MCT oil; format: in vivo; details: human, plasma; formulated in compound of formula IV, low dose of 25 mg, oral; read-out: CBD more bioavailable than in MCT oil
Measurement label: bioavailability (%)
Answers are plain numbers, in %.

Fill blank: measured bioavailability of the compound C=C(C)[C@@H]1CCC(C)=C[C@H]1c1c(O)cc(CCCCC)cc1O is ____.
200

###

assay: CBD solubility in carrier oils; format: physicochemical; conditions: oil or lipid; in a formulation containing compound of formula IV and EPA fish oil
Measurement label: solubility (mg/mL)
Give bare numbers, in mg/mL.

Fill blank: measured solubility of the molecule C=C(C)[C@@H]1CCC(C)=C[C@H]1c1c(O)cc(CCCCC)cc1O [CBD, Cannabidiol] is ____.
400

Each recorded value in this set is attributed to patent US12226390B2.
